Each item that follows carries a reported polymerase ribozyme fitness (log ratio).
B1: TPR t1 (parent)
chain: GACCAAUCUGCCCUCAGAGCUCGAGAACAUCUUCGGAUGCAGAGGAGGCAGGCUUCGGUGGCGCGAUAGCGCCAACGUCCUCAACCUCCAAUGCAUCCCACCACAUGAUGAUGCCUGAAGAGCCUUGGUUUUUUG

variants of: B1; assay: polymerase ribozyme fitness, log enrichment relative to wild type (log ratio); higher = more active; in vitro selection for triplet polymerase activity
measurement.type: polymerase ribozyme fitness (log ratio)

{"mutant": "U67C G110U", "endpoint.result": -3.86}
{"mutant": "A16C A50U", "endpoint.result": -4.64}
{"mutant": "U7G A46U C82U C102A U112A", "endpoint.result": -0.759}
{"mutant": "A46C G47A C53A U78C", "endpoint.result": -1.4}
{"mutant": "G63C A91U C114A A118G U132A", "endpoint.result": -4.5}
{"mutant": "A37C C70A", "endpoint.result": -1.82}
{"mutant": "C12U A16U C22G U38G G52C A111U", "endpoint.result": -3.72}
{"mutant": "U54A U59G", "endpoint.result": -0.218}
{"mutant": "G47A C85A", "endpoint.result": -2.48}
{"mutant": "G39U G113U", "endpoint.result": -3.59}
{"mutant": "G47A C124G", "endpoint.result": 0.559}
{"mutant": "A2C C3A U9A C20U G120U", "endpoint.result": -0.418}
{"mutant": "C12G G69C C72U A90U U116G", "endpoint.result": -6.29}
{"mutant": "G60A C89A", "endpoint.result": -1.99}
{"mutant": "C56U G127C", "endpoint.result": -1.62}
{"mutant": "C72U G117C U125G", "endpoint.result": -5.63}
{"mutant": "A5G C8U C72G G110A", "endpoint.result": -1.25}
{"mutant": "C82A A118G A121G", "endpoint.result": 1.48}
{"mutant": "A5C G69U C72U C79A U92A", "endpoint.result": -3.86}
{"mutant": "C88A C94U", "endpoint.result": -0.581}
{"mutant": "C56A C86A", "endpoint.result": -0.76}
{"mutant": "U9A U14G C73G G117C", "endpoint.result": -1.75}

Ref: the RNAGym collection of RNA variant scans (doi:10.1073/pnas.2313332121)
